System: Escherichia coli ATCC 25922
Type: cell-based
Conditions: ATCC 25922
Non-standard residues stand in square brackets, D forms with d. Residues, ends and D or L forms follow the SMILES beside them. *: point of attachment. Octanoyl(7-Me) = CC(C)CCCCCC(=O)*; dOrn = NCCC[C@@H](N)C(=O)O; Orn = NCCC[C@H](N)C(=O)O
observable: Minimum inhibitory concentration (MIC)

Reported Minimum inhibitory concentration (MIC) ( CC[C@H](C)[C@H](NC(=O)[C@@H](NC(=O)[C@H](Cc1c[nH]c2ccccc12)NC(=O)[C@@H](CCCN)NC(=O)CNC(=O)[C@H](CCCN)NC(=O)[C@@H](CCCN)NC(=O)[C@@H](Cc1c[nH]c2ccccc12)NC(=O)[C@@H](Cc1ccc(O)cc1)NC(=O)[C@@H](CO)NC(=O)CCCCCC(C)C)[C@@H](C)O)C(=O)N[C@@H](CC(N)=O)C(=O)NCC(=O)NCC(=O)O [Linear Laterocidine (Thr9-COOH)] ({Octanoyl(7-Me)}-[dS][dY][dW][dOrn][Orn]G[dOrn]WTINGG-OH) ) = 4 to 8 µg/mL

* * *

Kindly state Minimum inhibitory concentration (MIC) for each of the entries shown.
Test system: Escherichia coli ATCC 25922
Assay type: cell-based
Conditions: ATCC 25922
Non-standard residues stand in square brackets, D forms with d. Residues, ends and D or L forms follow the SMILES beside them. *: point of attachment. Octanoyl(7-Me) = CC(C)CCCCCC(=O)*; dOrn = NCCC[C@@H](N)C(=O)O; Octanoyl = CCCCCCCC(=O)*; Orn = NCCC[C@H](N)C(=O)O
Reply with the number and its unit after it.

Measured Minimum inhibitory concentration (MIC) for this entry CCCCCCCC(=O)N[C@H](CO)C(=O)N[C@H](Cc1ccc(O)cc1)C(=O)N[C@H](Cc1c[nH]c2ccccc12)C(=O)N[C@H](CCCN)C(=O)N[C@@H](CCCN)C(=O)NCC(=O)N[C@H](CCCN)C(=O)N[C@@H](Cc1c[nH]c2ccccc12)C(=O)N[C@@H](CO)C(=O)N[C@H](C(=O)N[C@@H](CC(N)=O)C(N)=O)[C@@H](C)CC [ΔG12-G13-Ser9-C8] (Octanoyl-[dS][dY][dW][dOrn][Orn]G[dOrn]WSIN-NH2) on Escherichia coli ATCC 25922: 4 µg/mL

Considering CC[C@H](C)[C@H](NC(=O)[C@H](CC(N)=O)NC(=O)[C@H](Cc1c[nH]c2ccccc12)NC(=O)[C@@H](CCCN)NC(=O)CNC(=O)[C@H](CCCN)NC(=O)[C@@H](CCCN)NC(=O)[C@@H](Cc1c[nH]c2ccccc12)NC(=O)[C@@H](Cc1ccc(O)cc1)NC(=O)[C@@H](CO)NC(=O)CCCCCC(C)C)C(=O)N[C@@H](CC(N)=O)C(=O)NCC(=O)NCC(N)=O [Asn9-CONH2] ({Octanoyl(7-Me)}-[dS][dY][dW][dOrn][Orn]G[dOrn]WNINGG-NH2) , its Minimum inhibitory concentration (MIC) with Escherichia coli ATCC 25922 was recorded as 4 µg/mL

* * *

Test system: Escherichia coli ATCC 25922
Type: cell-based
Settings: ATCC 25922
Non-standard residues stand in square brackets, D forms with d. Residues, ends and D or L forms follow the SMILES beside them. *: point of attachment. Octanoyl(7-Me) = CC(C)CCCCCC(=O)*; dOrn = NCCC[C@@H](N)C(=O)O; Octanoyl = CCCCCCCC(=O)*; Orn = NCCC[C@H](N)C(=O)O; Dap = NC[C@H](N)C(=O)O; Alloc = C=CCOC(=O)*
Please respond with reported Minimum inhibitory concentration (MIC) for every item in the list.
Quick note: give the figure in µg/mL, leave out the unit.

Summary for this compound, CC[C@H](C)[C@H](NC(=O)[C@@H](NC(=O)[C@H](Cc1c[nH]c2ccccc12)NC(=O)[C@@H](CCCN)NC(=O)CNC(=O)[C@H](CCCN)NC(=O)[C@@H](CCCN)NC(=O)[C@@H](Cc1c[nH]c2ccccc12)NC(=O)[C@@H](Cc1ccc(O)cc1)NC(=O)[C@@H](CO)NC(=O)CCCCCC(C)C)[C@@H](C)O)C(=O)N[C@@H](CC(N)=O)C(=O)N[C@@H](C)C(=O)NCC(N)=O [Ala12 (Gly→Ala), FA-sywoOGoWTINAG-CONH2] ({Octanoyl(7-Me)}-[dS][dY][dW][dOrn][Orn]G[dOrn]WTINAG-NH2) : Minimum inhibitory concentration (MIC) is 4

# Minimum inhibitory concentration (MIC) of C=CCOC(=O)NC[C@H](NC(=O)[C@H](Cc1c[nH]c2ccccc12)NC(=O)[C@@H](CCCN)NC(=O)CNC(=O)[C@H](CCCN)NC(=O)[C@@H](CCCN)NC(=O)[C@@H](Cc1c[nH]c2ccccc12)NC(=O)[C@@H](Cc1ccc(O)cc1)NC(=O)[C@@H](CO)NC(=O)CCCCCCC)C(=O)N[C@H](C(=O)N[C@@H](CC(N)=O)C(N)=O)[C@@H](C)CC [ΔG12-G13-Dap(Alloc)9-C8] (Octanoyl-[dS][dY][dW][dOrn][Orn]G[dOrn]W[Dap](Alloc)IN-NH2) = 4

* * *

Test system: Escherichia coli ATCC 25922
Assay type: cell-based
Settings: ATCC 25922
Non-standard residues stand in square brackets, D forms with d. Residues, ends and D or L forms follow the SMILES beside them. *: point of attachment. Octanoyl(7-Me) = CC(C)CCCCCC(=O)*; dOrn = NCCC[C@@H](N)C(=O)O; Orn = NCCC[C@H](N)C(=O)O; Dap = NC[C@H](N)C(=O)O; Alloc = C=CCOC(=O)*
observable: Minimum inhibitory concentration (MIC) (µg/mL)
Write the number in µg/mL without appending the unit.

Input C=CCOC(=O)NC[C@H](NC(=O)[C@H](Cc1c[nH]c2ccccc12)NC(=O)[C@@H](CCCN)NC(=O)CNC(=O)[C@H](CCCN)NC(=O)[C@@H](CCCN)NC(=O)[C@@H](Cc1c[nH]c2ccccc12)NC(=O)[C@@H](Cc1ccc(O)cc1)NC(=O)[C@@H](CO)NC(=O)CCCCCC(C)C)C(=O)N[C@H](C(=O)N[C@@H](CC(N)=O)C(=O)NCC(=O)NCC(=O)O)[C@@H](C)CC [Dap(Alloc)9-COOH] ({Octanoyl(7-Me)}-[dS][dY][dW][dOrn][Orn]G[dOrn]W[Dap](Alloc)INGG-OH) . Output Minimum inhibitory concentration (MIC): 2

* * *

Test system: Escherichia coli ATCC 25922
Assay type: cell-based
Conditions: ATCC 25922
Non-standard residues stand in square brackets, D forms with d. Residues, ends and D or L forms follow the SMILES beside them. *: point of attachment. Octanoyl(7-Me) = CC(C)CCCCCC(=O)*; dOrn = NCCC[C@@H](N)C(=O)O; Orn = NCCC[C@H](N)C(=O)O; Dap = NC[C@H](N)C(=O)O
observable: Minimum inhibitory concentration (MIC) (mg/L)
Write the number in mg/L without appending the unit.

The molecule listed as CCC(C)CCC(=O)N[C@H](CC(N)=O)C(=O)N[C@H](Cc1ccc(O)cc1)C(=O)N[C@H](Cc1c[nH]c2ccccc12)C(=O)N[C@H](CCCN)C(=O)N[C@@H](CCCN)C(=O)NCC(=O)N[C@H](CCCN)C(=O)N[C@@H](Cc1c[nH]c2ccccc12)C(=O)N[C@H]1COC(=O)[C@H](CO)NC(=O)CNC(=O)[C@H]([C@@H](C)CC)NC1=O (single isomer, unassigned) has a reported Minimum inhibitory concentration (MIC) of 4

Record summary for CC[C@H](C)[C@H](NC(=O)[C@H](CN)NC(=O)[C@H](Cc1c[nH]c2ccccc12)NC(=O)[C@@H](CCCN)NC(=O)CNC(=O)[C@H](CCCN)NC(=O)[C@@H](CCCN)NC(=O)[C@@H](Cc1c[nH]c2ccccc12)NC(=O)[C@@H](Cc1ccc(O)cc1)NC(=O)[C@@H](CO)NC(=O)CCCCCC(C)C)C(=O)N[C@@H](CC(N)=O)C(=O)NCC(=O)NCC(N)=O [Dap9-CONH2] ({Octanoyl(7-Me)}-[dS][dY][dW][dOrn][Orn]G[dOrn]W[Dap]INGG-NH2) : reported Minimum inhibitory concentration (MIC) = 4

* * *

Test system: Escherichia coli ATCC 25922
Assay type: cell-based
Settings: ATCC 25922
Positions of bridges follow the written chain, without caps; N, C: chain ends. Non-standard residues stand in square brackets, D forms with d. Residues, ends and D or L forms follow the SMILES beside them. ξ: configuration not given here. *: point of attachment. Hexanoyl(4ξ-Me) = CCC(C)CCC(=O)*; Lauroyl = CCCCCCCCCCCC(=O)*; dOrn = NCCC[C@@H](N)C(=O)O; Orn = NCCC[C@H](N)C(=O)O; Dap = NC[C@H](N)C(=O)O
Assign Minimum inhibitory concentration (MIC) to each entry below.
Respond with the bare value in µg/mL.

The compound listed as CCC(C)CCC(=O)N[C@H](CO)C(=O)N[C@H](Cc1ccc(O)cc1)C(=O)N[C@H](Cc1c[nH]c2ccccc12)C(=O)N[C@H](CCCN)C(=O)N[C@@H](CCCN)C(=O)NCC(=O)N[C@H](CCCN)C(=O)N[C@@H](Cc1c[nH]c2ccccc12)C(=O)N[C@H]1CNC(=O)CNC(=O)[C@H](CO)NC(=O)CNC(=O)[C@H]([C@@H](C)CC)NC1=O (some centres unmarked) [Dap9-Relacidamide A] ({Hexanoyl(4ξ-Me)}-[dS][dY][dW][dOrn][Orn]G[dOrn]W[Dap]IGSG; lactam 9-C) shows Minimum inhibitory concentration (MIC) equal to 2

Looking up CCCCCCCCCCCC(=O)N[C@H](CO)C(=O)N[C@H](Cc1ccc(O)cc1)C(=O)N[C@H](Cc1c[nH]c2ccccc12)C(=O)N[C@H](CCCN)C(=O)N[C@@H](CCCN)C(=O)NCC(=O)N[C@H](CCCN)C(=O)N[C@@H](Cc1c[nH]c2ccccc12)C(=O)N[C@@H]1C(=O)N[C@@H]([C@@H](C)CC)C(=O)N[C@@H](CC(N)=O)C(=O)NCC(=O)NCC(=O)O[C@@H]1C [Compound C12] (Lauroyl-[dS][dY][dW][dOrn][Orn]G[dOrn]WTINGG; ester 9-C) , I see its Minimum inhibitory concentration (MIC) listed as 4

Each recorded value in this set is attributed to patent US20240140991A1.
